# Tested on: 4EBP1 T37/T46 phosphorylation (mTORC1)
# procedureDetails: AlphaLISA/MSD analysis of 4EBP1 phosphorylation in MDA-MB-468 cells
# Format: cell-based
# conditions: Homo sapiens; MDA-MB-468 cells; read-out: p4EBP1 IC50
Below is a list of entries, each paired with its recorded pIC50 value.
// field semantics: pIC50 = negative decimal log of concentration (mol/L)

CO[C@H]1C[C@@H]2CC[C@@H](C)[C@@](O)(O2)C(=O)C(=O)N2CCCC[C@H]2C(=O)O[C@H]([C@H](C)C[C@@H]2CC[C@@H](OCCCCc3cn(CCOCCOCCOCCOCCOCCOCCC(=O)NCCCCn4nc(-c5ccc6oc(N)nc6c5)c5c(N)ncnc54)nn3)[C@H](OC)C2)CC(=O)[C@H](C)/C=C(\C)[C@@H](O)[C@@H](OC)C(=O)[C@H](C)C[C@H](C)/C=C/C=C/C=C/1C    8.96

Entry CO[C@H]1C[C@@H]2CC[C@@H](C)[C@@](O)(O2)C(=O)C(=O)N2CCCC[C@H]2C(=O)O[C@H]([C@H](C)C[C@@H]2CC[C@@H](OCCCCc3cn(CCOCCOCCOCCOCCOCCOCCC(=O)NCCCCn4nc(-c5cc6cc(O)ccc6[nH]5)c5c(N)ncnc54)nn3)[C@H](OC)C2)CC(=O)[C@H](C)/C=C(\C)[C@@H](O)[C@@H](OC)C(=O)[C@H](C)C[C@H](C)/C=C/C=C/C=C/1C ; pIC50 = 6.43

Entry CO[C@H]1C[C@@H]2CC[C@@H](C)[C@@](O)(O2)C(=O)C(=O)N2CCCC[C@H]2C(=O)O[C@H]([C@H](C)C[C@@H]2CC[C@@H](OCCCCc3cn(CCOCCOCCOCCOCCOCCC(=O)NCCCCn4nc(-c5ccc6oc(N)nc6c5)c5c(N)ncnc54)nn3)[C@H](OC)C2)CC(=O)[C@H](C)/C=C(\C)[C@@H](O)[C@@H](OC)C(=O)[C@H](C)C[C@H](C)/C=C/C=C/C=C/1C ; pIC50 = 7.60

====

# Test system: 4EBP1 T37/T46 phosphorylation (mTORC1)
# procedureDetails: AlphaLISA/MSD analysis of 4EBP1 phosphorylation in MDA-MB-468 cells
# Type: cell-based
# conditions: Homo sapiens; MDA-MB-468 cells; read-out: p4EBP1 IC50
Below is a list of entries, each paired with its recorded pIC50 value.
// field semantics: pIC50 = negative decimal log of concentration (mol/L)

Study these solved cases before continuing.
CO[C@H]1C[C@@H]2CC[C@@H](C)[C@@](O)(O2)C(=O)C(=O)N2CCCC[C@H]2C(=O)O[C@H]([C@H](C)C[C@@H]2CC[C@@H](OC(=O)NCCOCCOCCOCCOCCOCCOCCOCCOCCC(=O)NCCCCn3nc(-c4ccc5oc(N)nc5c4)c4c(N)ncnc43)[C@H](OC)C2)CC(=O)[C@H](C)/C=C(\C)[C@@H](O)[C@@H](OC)C(=O)[C@H](C)C[C@H](C)/C=C/C=C/C=C/1C    8.77
CO[C@H]1C[C@@H]2CC[C@@H](C)[C@@](O)(O2)C(=O)C(=O)N2CCCC[C@H]2C(=O)O[C@H]([C@H](C)C[C@@H]2CC[C@@H](OCCCCc3cn(CCOCCOCCOCCOCCOCCOCCOCCOCCC(=O)NCCCCn4nc(-c5ccc6oc(N)nc6c5)c5c(N)ncnc54)nn3)[C@H](OC)C2)CC(=O)[C@H](C)/C=C(\C)[C@@H](O)[C@@H](OC)C(=O)[C@H](C)C[C@H](C)/C=C/C=C/C=C/1C    8.96
CO[C@H]1C[C@@H]2CC[C@@H](C)[C@@](O)(O2)C(=O)C(=O)N2CCCC[C@H]2C(=O)O[C@H]([C@H](C)C[C@@H]2CC[C@@H](OC(=O)NCCOCCOCCOCCOCCOCCOCCOCCOCCC(=O)N3CCc4cc(Cn5nc(-c6ccc7oc(N)nc7c6)c6c(N)ncnc65)ccc4C3)[C@H](OC)C2)CC(=O)[C@H](C)/C=C(\C)[C@@H](O)[C@@H](OC)C(=O)[C@H](C)C[C@H](C)/C=C/C=C/C=C/1C    9.38

Below: the item to evaluate.
Entry CO[C@H]1C[C@@H]2CC[C@@H](C)[C@@](O)(O2)C(=O)C(=O)N2CCCC[C@H]2C(=O)O[C@H]([C@H](C)C[C@@H]2CC[C@@H](OCCOCc3cn(CCOCCOCCOCCOCCOCCOCCOCCOCCC(=O)NCCCCn4nc(-c5ccc6oc(N)nc6c5)c5c(N)ncnc54)nn3)[C@H](OC)C2)CC(=O)[C@H](C)/C=C(\C)[C@@H](O)[C@@H](OC)C(=O)[C@H](C)C[C@H](C)/C=C/C=C/C=C/1C [compound 3, RapaLink-1, reference compound] ; pIC50 = 8.77

Value source: paper PMC9841523
